System: ATP;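 note: ATP exposure 15 min at 22 °C before imaging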
experiment.summary: switch fluorescence ratio, 500 uM ATP over buffer (Cy3 cluster intensity, sum of 5 cycles each) (fold (ratio)); higher = stronger signal-on switching upon ATP binding; sequences stand for … in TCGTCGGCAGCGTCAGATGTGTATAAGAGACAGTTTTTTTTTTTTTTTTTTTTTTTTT…TC
experimental.conditions: aptamer strand: ATP DNA aptamer (quencher-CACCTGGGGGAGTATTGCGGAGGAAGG + anchor), 100 nM annealed; ATP concentration: 500 uM

sequence.content: CGGCTAAAGA
assayed.target: ATP;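 note: ATP exposure 15 min at 22 °C before imaging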
switch fluorescence ratio: 0.976
--
sequence.content: TCCCCTGTGT
assayed.target: ATP;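 note: ATP exposure 15 min at 22 °C before imaging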
switch fluorescence ratio: 1.86
--
sequence.content: CAACTGCACG
assayed.target: ATP;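 note: ATP exposure 15 min at 22 °C before imaging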
switch fluorescence ratio: 1.22
--
sequence.content: TTTGGGTATG
assayed.target: ATP;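 note: ATP exposure 15 min at 22 °C before imaging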
switch fluorescence ratio: 0.992
--
sequence.content: AATAGAATTA
assayed.target: ATP;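 note: ATP exposure 15 min at 22 °C before imaging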
switch fluorescence ratio: 1
--
sequence.content: CGGCAACGGT
assayed.target: ATP;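 note: ATP exposure 15 min at 22 °C before imaging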
switch fluorescence ratio: 1.01
--
sequence.content: GCGCAACAGG
assayed.target: ATP;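 note: ATP exposure 15 min at 22 °C before imaging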
switch fluorescence ratio: 1.04
--
sequence.content: TTTCAAGTGC
assayed.target: ATP;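 note: ATP exposure 15 min at 22 °C before imaging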
switch fluorescence ratio: 1.03
--
sequence.content: GAGGATCAGG
assayed.target: ATP;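 note: ATP exposure 15 min at 22 °C before imaging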
switch fluorescence ratio: 1.03
--
sequence.content: ACGGTGTGCG
assayed.target: ATP;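 note: ATP exposure 15 min at 22 °C before imaging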
switch fluorescence ratio: 1
--
sequence.content: TGTAGAGGGA
assayed.target: ATP;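 note: ATP exposure 15 min at 22 °C before imaging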
switch fluorescence ratio: 1
--
sequence.content: TTGGAAAAT
assayed.target: ATP;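 note: ATP exposure 15 min at 22 °C before imaging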
switch fluorescence ratio: 0.967
--
sequence.content: TCGTTATATT
assayed.target: ATP;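 note: ATP exposure 15 min at 22 °C before imaging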
switch fluorescence ratio: 0.98
--
sequence.content: GTTTGCAGGA
assayed.target: ATP;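 note: ATP exposure 15 min at 22 °C before imaging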
switch fluorescence ratio: 0.995
--
sequence.content: GCATAGTCTG
assayed.target: ATP;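 note: ATP exposure 15 min at 22 °C before imaging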
switch fluorescence ratio: 1.04
--
sequence.content: GGGTATAGGC
assayed.target: ATP;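 note: ATP exposure 15 min at 22 °C before imaging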
switch fluorescence ratio: 0.981
--
sequence.content: ATTTTTTCAA
assayed.target: ATP;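 note: ATP exposure 15 min at 22 °C before imaging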
switch fluorescence ratio: 0.981
--
sequence.content: AATTTAATAT
assayed.target: ATP;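 note: ATP exposure 15 min at 22 °C before imaging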
switch fluorescence ratio: 1.01
--
sequence.content: GCTGGGGCAG
assayed.target: ATP;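 note: ATP exposure 15 min at 22 °C before imaging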
switch fluorescence ratio: 1.02
--
sequence.content: TGGGAAAGGC
assayed.target: ATP;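 note: ATP exposure 15 min at 22 °C before imaging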
switch fluorescence ratio: 1.07
--
sequence.content: GAAATCGGTG
assayed.target: ATP;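 note: ATP exposure 15 min at 22 °C before imaging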
switch fluorescence ratio: 0.995
--
sequence.content: AAGATGTTTG
assayed.target: ATP;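 note: ATP exposure 15 min at 22 °C before imaging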
switch fluorescence ratio: 0.975
--
sequence.content: TTTAAGGTAG
assayed.target: ATP;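 note: ATP exposure 15 min at 22 °C before imaging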
switch fluorescence ratio: 0.993
--
sequence.content: GAGGCCGTTG
assayed.target: ATP;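 note: ATP exposure 15 min at 22 °C before imaging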
switch fluorescence ratio: 1.02
--
sequence.content: GGGGATCGCC
assayed.target: ATP;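 note: ATP exposure 15 min at 22 °C before imaging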
switch fluorescence ratio: 1.01

The measurements presented in this section are drawn from the supplement of paper PMC10126150.
